Molecular target: human TRPV1 (Homo sapiens (Human))
Sequence (Q8NER1 whole entry): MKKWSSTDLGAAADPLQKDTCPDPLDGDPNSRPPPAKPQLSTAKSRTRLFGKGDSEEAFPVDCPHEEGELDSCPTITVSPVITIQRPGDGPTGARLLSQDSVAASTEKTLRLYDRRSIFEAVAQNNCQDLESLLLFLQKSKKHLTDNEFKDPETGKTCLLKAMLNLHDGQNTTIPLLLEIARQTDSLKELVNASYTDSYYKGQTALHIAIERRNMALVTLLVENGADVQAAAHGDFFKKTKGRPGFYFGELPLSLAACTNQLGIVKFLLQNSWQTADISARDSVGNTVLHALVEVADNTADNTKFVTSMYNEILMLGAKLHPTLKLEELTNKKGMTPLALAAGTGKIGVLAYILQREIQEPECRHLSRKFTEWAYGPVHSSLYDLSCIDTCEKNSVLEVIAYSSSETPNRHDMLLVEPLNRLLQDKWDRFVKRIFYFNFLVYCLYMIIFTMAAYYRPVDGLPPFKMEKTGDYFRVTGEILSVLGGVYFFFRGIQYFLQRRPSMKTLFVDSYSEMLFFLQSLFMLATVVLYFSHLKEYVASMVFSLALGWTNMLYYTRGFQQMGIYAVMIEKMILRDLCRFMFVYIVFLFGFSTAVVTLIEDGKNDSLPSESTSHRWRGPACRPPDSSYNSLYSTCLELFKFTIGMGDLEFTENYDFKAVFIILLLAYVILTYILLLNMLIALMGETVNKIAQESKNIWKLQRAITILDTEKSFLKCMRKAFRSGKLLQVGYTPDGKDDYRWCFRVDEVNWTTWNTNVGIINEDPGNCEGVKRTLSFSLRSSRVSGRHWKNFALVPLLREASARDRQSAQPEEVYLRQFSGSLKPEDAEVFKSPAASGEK
Test: Acid Activation Assay (pH 5.0, intracellular Ca2+, FLIPR)
Assay type: cell-based
Conditions: percentage of the maximal pH 5.0-induced response remaining; recombinant HEK293 hTRPV1 cells; maximum concentration tested 37.5 μM
Entries and their human TRPV1 H^+ (max % remain) values follow.

{"columns": ["Compound", "human TRPV1 H^+ (max % remain)"],
 "data": [
  ["CN1Cc2ccc(NC(=O)N[C@@H]3CC(C)(C)Oc4c(F)cccc43)cc2NC1=O [Example 210]", "60%"],
  ["Cn1c(=O)ccc2c(NC(=O)N[C@@H]3C[C@](C)(CF)Oc4cc(Cl)ccc43)cccc21 [Example 40]", "38%"],
  ["CN(CCO)C1Cc2ccc(NC(=O)N[C@@H]3CC(CF)(CF)Oc4cc(Cl)ccc43)cc2NC1=O (some centres unmarked) [Example 304]", "0%"],
  ["CN1C(=O)CCc2ccc(NC(=O)N[C@@H]3CCc4cc(Cl)ccc43)cc21 [Example 283]", "84%"],
  ["CCC1(CC)C[C@@H](NC(=O)Nc2ccc3c(c2)NC(=O)CO3)c2ccccc2O1 [Example 102]", "99%"],
  ["COCC1(COC)C[C@@H](NC(=O)Nc2ccc3c(c2)NC(=O)N(C)C3)c2cc(F)ccc2O1 [Example 196]", "53%"],
  ["CN1C(=O)NCc2c(NC(=O)N[C@@H]3CC(C)(C)Oc4cc(F)ccc43)cccc21 [Example 1]", "25%"],
  ["CN1C(=O)CCc2ccc(NC(=O)N[C@H]3CC(C)(C)Oc4ccc(F)cc43)cc21 [Example 287]", "92%"]
]}
